These data points were gathered from ChEMBL document CHEMBL3792283.

test: Antiproliferative activity human HCT116 cells assessed as reduction in cell number after 72 hrs by cell counter analysis; type: functional, cell-based; conditions: HCT-116, 72 h
test-readout: IC50 (nM)
The answer is to be given in nM; state only the numeric part.

Sample answers from the record:
O=C(CCCCCCC(=O)Nc1ccccc1)NO [VORINOSTAT]
310
COc1ccc(-c2ccc(/C=C/C(=O)NO)cc2)cc1
260
Cc1[nH]c2ccccc2c1/C=C/c1ccccc1-c1ccc(/C=C/C(=O)NO)cc1
270

Pending molecule:
Request: Given CC(C)=C(c1ccccc1)c1ccc(/C=C/C(=O)NO)cc1 , respond with its IC50.
Result: 2000
